The reported measurements were obtained from ChEMBL document CHEMBL1201862.

This section lists AC50 readings for Cytochrome P450 1A2 (Homo sapiens).

Here is how some compounds turned out for AC50.
compound=C=CCN1C[C@H](C)N([C@@H](c2ccccc2)c2ccc(C(=O)N(CC)CC)cc2)C[C@H]1C property_measured=AC50 value_measured="31.6 µM (inconclusive)"
compound="Cc1cccc(-n2nnc(C(=O)NC3CCCc4ccccc43)c2N)c1 (stereo not given)" property_measured=AC50 value_measured="15.8 µM (inconclusive)"
compound=CC(C)c1ccc(-c2nnn(CCC(=O)O)n2)cc1 property_measured=AC50 value_measured="12.6 µM (inconclusive)"
compound=CCNC(=O)c1ccc(-n2nc(C(F)(F)F)c3c2CCCC3)cc1 property_measured=AC50 value_measured="25.1 µM (inconclusive)"

Could you now look at the following compound, please?
Problem: Form field - read-out: AC50; system: Cytochrome P450 1A2 (Homo sapiens); submitted item: "O=C(c1ccc(Br)cc1)c1cc([N+](=O)[O-])ccc1N1CCCCC1"
Sequence (P05177 whole entry): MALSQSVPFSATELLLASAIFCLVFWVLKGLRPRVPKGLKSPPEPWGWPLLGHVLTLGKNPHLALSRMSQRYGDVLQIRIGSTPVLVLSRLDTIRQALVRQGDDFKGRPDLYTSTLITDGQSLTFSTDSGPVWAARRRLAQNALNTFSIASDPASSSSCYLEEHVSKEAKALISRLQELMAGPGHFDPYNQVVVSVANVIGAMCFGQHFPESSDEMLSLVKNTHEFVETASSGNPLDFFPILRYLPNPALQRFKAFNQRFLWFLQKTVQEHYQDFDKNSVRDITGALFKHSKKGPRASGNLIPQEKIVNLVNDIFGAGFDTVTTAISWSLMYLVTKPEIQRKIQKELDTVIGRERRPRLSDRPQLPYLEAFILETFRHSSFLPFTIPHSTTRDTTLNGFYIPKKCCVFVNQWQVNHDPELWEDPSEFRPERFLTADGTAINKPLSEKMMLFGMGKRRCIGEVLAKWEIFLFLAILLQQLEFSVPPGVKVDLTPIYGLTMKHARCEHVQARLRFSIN
Solution: 2 µM (inconclusive)

###

study_target: Kappa-type opioid receptor (Homo sapiens, UniProt P41145)
Sequence (P41145 whole entry): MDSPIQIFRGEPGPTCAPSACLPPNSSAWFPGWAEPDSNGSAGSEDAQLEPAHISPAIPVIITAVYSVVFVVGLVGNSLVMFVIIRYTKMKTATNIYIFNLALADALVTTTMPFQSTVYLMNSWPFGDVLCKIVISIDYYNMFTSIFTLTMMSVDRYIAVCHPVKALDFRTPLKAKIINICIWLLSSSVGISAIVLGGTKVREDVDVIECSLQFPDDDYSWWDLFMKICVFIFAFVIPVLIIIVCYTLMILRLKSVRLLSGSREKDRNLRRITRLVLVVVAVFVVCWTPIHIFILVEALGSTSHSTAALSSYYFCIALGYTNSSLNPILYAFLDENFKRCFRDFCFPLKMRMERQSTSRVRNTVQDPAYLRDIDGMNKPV
Type: functional
property_measured: pIC50
Entry type: numeric. Quantity: pIC50, the -log10 of concentration in molar units.

Problem: Enter reported pIC50 observed with Kappa-type opioid receptor (Homo sapiens, UniProt P41145) for "CC(C)(C)c1ccc(-n2nc(C#N)c(Cl)cc2=O)cc1"
Solution: 5.40

###

compounds and their reported IC50
study_target: Mannose-6-phosphate isomerase (Homo sapiens)
Sequence (P34949 whole entry): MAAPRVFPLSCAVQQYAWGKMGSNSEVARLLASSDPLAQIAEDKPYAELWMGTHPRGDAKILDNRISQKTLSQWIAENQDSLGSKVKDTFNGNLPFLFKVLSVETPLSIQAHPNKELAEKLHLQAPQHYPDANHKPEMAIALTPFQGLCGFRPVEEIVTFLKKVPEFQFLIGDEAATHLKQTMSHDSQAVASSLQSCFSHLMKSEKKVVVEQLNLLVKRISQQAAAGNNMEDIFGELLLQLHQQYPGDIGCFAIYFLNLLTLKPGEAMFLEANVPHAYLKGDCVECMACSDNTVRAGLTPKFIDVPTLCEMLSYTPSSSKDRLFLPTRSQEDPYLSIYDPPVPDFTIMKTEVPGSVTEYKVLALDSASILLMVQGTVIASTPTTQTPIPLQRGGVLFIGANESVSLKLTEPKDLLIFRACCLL
procedure_details: MPI inhibition at elevated mannose 6-phosphate – biochemical, fluorescence intensity, high mannose 6-phosphate, primary screen (AID 1220)
Active and inactive are the calls of the source.

mol_smiles=Oc1nc2cc(/N=C/c3c(O)ccc4cc(Br)ccc34)ccc2[nH]1 value_measured="> 50 µM (not active)"
mol_smiles=Fc1ccc(/N=c2\ssnc2Cl)c(F)c1 value_measured="25.3 µM (active)"
mol_smiles=CCOc1c(O)ccc(/C=C2\SC(=S)NC2=O)c1[N+](=O)[O-] value_measured="> 50 µM (not active)"

Could you now consider this next compound?
Problem: Which IC50 is listed for "CC1(C)Cc2c(sc3ncn4c(S)nnc4c23)CO1" ?
Solution: > 50 µM (not active)

###

Test system: INS1
procedure_details: INS-1E survival protection against cytokine death – cell-based, luminescence, retest, dose response (AID 449756);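 also: cell death triggered by IL-1 beta plus TNF-alpha plus IFN-gamma mixture; protective hits raise ATP signal compared with cytokine alone wells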
Type: functional
particulars: Rattus norvegicus
The source made the active and inactive calls.
Known AC50 of a selection of molecules

The examples below pair each entry with its known result.
molecule="COc1ccc(C2NCCc3c2[nH]c2ccccc32)cc1COc1ccc(F)cc1 (stereo not given)" value_measured="6.96 µM (active)"
molecule="CCCCC(CC)CN1C(=O)/C(=C/c2ccncc2)SC1=S (stereo not given)" value_measured="17.7 µM (active)"

Problem: State the recorded AC50 for this entry: "FC(F)(F)c1nnc(-c2ccccc2)nc1Sc1ccc(Cl)cc1"
Solution: 9.75 µM (active)

Problem: GET /values?readout=AC50&item= "Cc1ncc(CO)c(/C=N/NC(=O)c2cc3c(s2)CCCC3)c1O"
Solution: 1.89 µM (active)

Problem: What value of AC50 has been recorded for this entry: "Cc1c(C)c2cccnc2c2ncccc12"
Solution: 1.57 µM (active)

###

Test system: H4
procedure_details: Luminescence Cell-Based Dose Response HTS to Identify Activators of 5'UTR Stem-Loop Driven Prion Protein mRNA Translation in H4 Neuroglioblastoma Cells. [Related pubchem assays: 1829 (Project Summary), 1814 (Primary HTS)]
Type: functional
particulars: Homo sapiens
Calls of active or inactive are those of the source.
EC50 by entry:

Example results:
compound=Cn1cccc1CNC(=O)Nc1ccc(Cl)c(Cl)c1 value_measured="> 120 µM (not active)"
compound=CCOC(=O)c1sc(Nc2ccccc2Cl)nc1C value_measured="43.9 µM (active)"
compound="Cc1ccc(N2CSC3=C(C#N)C(c4cccs4)CC(=O)N3C2)cc1 (centres undefined)" value_measured="7.71 µM (active)"

Now, please, on to the next compound.
Problem: EC50 for "CN1CCc2nc(SCC(=O)OC(C)(C)C)c(C#N)cc2C1" ?
Solution: 108 µM (active)
